These data points were gathered from the supplement of paper PMC10567573.

Listed here: items and their measured protein stability index.
B1: SMOC2 (parent)
chain: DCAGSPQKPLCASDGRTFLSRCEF

variants of: B1; experiment: protein stability index of a GFP-peptide fusion (GPS, HEK-293T) (PSI 1-6); higher = more stable; conditions: c terminus: a fixed tail appended;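 also: lentivirally expressed fusions sorted by FACS into six bins by GFP to DsRed ratio, PSI derived from sequencing read proportions per bin multiplied by bin number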

sequence.variant	protein stability index
F18T	4
T17L	2.11
D1R	1.55
C2Q	3.12
E23T	2.19
D14G	2.56

Ask | Entry F24L : reported protein stability index = ?
Reply | 3.44

Ask | Follow-up entry: A3R
Reply | 2.38

Ask | Similarly, D14V ?
Reply | 2.6

Ask | Another: R21E
Reply | 3.62

Ask | Now the same for S13M
Reply | 2.3

Ask | Same for C2G
Reply | 3.66
